target.of.assay: Msep5-HT7L receptor (Mythimna separata)
measurement.notes: cAMP assay, agonist activation of Msep5-HT7L in stably transfected HEK293 cells
Format: cell-based
protocol.conditions: 10 μM, HEK293 cells expressing Msep5-HT7L

| compound | target.of.assay | effect on intracellular cAMP levels |
| --- | --- | --- |
| CC(N)Cc1c[nH]c2ccc(O)cc12.O=C(O)/C=C\C(=O)O (stereo not drawn) [αm-5-HT, α-methylserotonin maleate] | Msep5-HT7L receptor (Mythimna separata) | activated |
| CCCN(CCC)C1CCc2cccc(O)c2C1 (racemic) [8-OH-DPAT] | Msep5-HT7L receptor (Mythimna separata) | activated |
| COc1ccc2[nH]cc(CCN)c2c1 [5-MT, 5-methoxytryptamine] | Msep5-HT7L receptor (Mythimna separata) | activated |

---

target.of.assay: UniProt:A0AAD7YHG5
measurement.notes: cAMP assay, antagonist block of 5-HT-induced response in HEK293 cells expressing Msep5-HT7L
Format: cell-based
protocol.conditions: IC50, 5-HT7L, against 5 μM 5-HT, HEK-293 cells
Structures can show the parent of a compound that is named as a salt.
readout.type: pIC50
Answers are plain numbers, as −log10 of the molar value.

Consider the worked cases shown below.
| compound | target.of.assay | pIC50 |
| --- | --- | --- |
| Cc1cccc(S(=O)(=O)N(C)[C@H](C)CCN2CCC(C)CC2)c1 [SB-258719] | UniProt:A0AAD7YHG5 | 4.26 |
| CSc1ccc2c(c1)C(N1CCN(C)CC1)Cc1ccccc1S2 (stereo not shown) [Methiothepin, methiothepin mesylate] | UniProt:A0AAD7YHG5 | 4.06 |
| CC1CCN(CC[C@H]2CCCN2S(=O)(=O)c2cccc(O)c2)CC1 [SB-269970] | UniProt:A0AAD7YHG5 | 4.15 |

For the next question, use this compound.
Note pIC50 for the compound shown: O=C(c1ccc(F)cc1)C1CCN(CCn2c(=O)[nH]c3ccccc3c2=O)CC1 [Ketanserin] 4.33

---

target.of.assay: Msep5-HT7L receptor (Mythimna separata, UniProt A0AAD7YHG5)
Sequence (A0AAD7YHG5 entry or part of it): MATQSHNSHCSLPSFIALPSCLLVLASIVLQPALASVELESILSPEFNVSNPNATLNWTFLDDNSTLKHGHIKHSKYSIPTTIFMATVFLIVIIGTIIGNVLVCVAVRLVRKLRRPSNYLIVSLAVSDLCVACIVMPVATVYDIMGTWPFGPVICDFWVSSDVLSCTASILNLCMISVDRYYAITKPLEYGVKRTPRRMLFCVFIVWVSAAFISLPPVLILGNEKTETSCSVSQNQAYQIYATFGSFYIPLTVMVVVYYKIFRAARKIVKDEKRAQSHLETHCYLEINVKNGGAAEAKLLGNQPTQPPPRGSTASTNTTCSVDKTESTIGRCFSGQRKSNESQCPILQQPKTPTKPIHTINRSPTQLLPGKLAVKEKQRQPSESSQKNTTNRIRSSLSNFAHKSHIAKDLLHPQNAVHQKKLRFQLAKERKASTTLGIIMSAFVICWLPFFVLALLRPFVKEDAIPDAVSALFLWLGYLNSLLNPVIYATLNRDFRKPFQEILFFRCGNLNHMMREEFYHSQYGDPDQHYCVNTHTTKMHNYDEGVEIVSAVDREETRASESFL
measurement.notes: cAMP assay, agonist activation of Msep5-HT7L in stably transfected HEK293 cells
Type: cell-based
protocol.conditions: EC50, 5-HT7L, cAMP production, HEK-293 cells
readout.type: EC50 (µM)
Give bare numbers, in µM.

| molecule | target.of.assay | EC50 (µM) |
| --- | --- | --- |
| CCCN(CCC)C1CCc2cccc(O)c2C1 (racemic) | Msep5-HT7L receptor (Mythimna separata, UniProt A0AAD7YHG5) | 10.1 |

In the following, a different molecule is considered.
Tell me its EC50 given COc1ccc2[nH]cc(CCN)c2c1 as the entry. 20.9

---

target.of.assay: Msep5-HT7S receptor (Mythimna separata, UniProt A0AAD7YHG5, DEL320-414)
Sequence (A0AAD7YHG5 entry or part of it DEL320-414): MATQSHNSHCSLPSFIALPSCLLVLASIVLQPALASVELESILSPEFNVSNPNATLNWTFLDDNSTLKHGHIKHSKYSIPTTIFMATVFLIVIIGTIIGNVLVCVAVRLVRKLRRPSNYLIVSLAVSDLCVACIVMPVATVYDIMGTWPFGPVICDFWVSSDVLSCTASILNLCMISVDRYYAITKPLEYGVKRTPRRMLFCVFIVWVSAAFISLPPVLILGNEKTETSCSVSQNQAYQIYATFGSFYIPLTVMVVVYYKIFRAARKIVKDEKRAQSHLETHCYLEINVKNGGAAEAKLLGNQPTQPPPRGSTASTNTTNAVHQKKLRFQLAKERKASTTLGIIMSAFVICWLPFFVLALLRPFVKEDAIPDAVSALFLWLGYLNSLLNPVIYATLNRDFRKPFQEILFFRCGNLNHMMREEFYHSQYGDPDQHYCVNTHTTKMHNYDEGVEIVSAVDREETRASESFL
measurement.notes: cAMP assay, antagonist block of 5-HT-induced response in HEK293 cells expressing Msep5-HT7S
Type: cell-based
protocol.conditions: logIC50 (Mean ± SEM), 5-HT7S, against 5 μM 5-HT; given as negative log value
Where a name gives a salt, the structure may show the parent alone.
readout.type: IC50 (µM)
Give bare numbers, in µM.

Below are worked cases with known answers.
| molecule | target.of.assay | readout.type | readout.value |
| --- | --- | --- | --- |
| O=C(c1ccc(F)cc1)C1CCN(CCn2c(=O)[nH]c3ccccc3c2=O)CC1 | Msep5-HT7S receptor (Mythimna separata, UniProt A0AAD7YHG5, DEL320-414) | IC50 | 85.1 |
| Cc1cccc(S(=O)(=O)N(C)[C@H](C)CCN2CCC(C)CC2)c1 | Msep5-HT7S receptor (Mythimna separata, UniProt A0AAD7YHG5, DEL320-414) | IC50 | 64.6 |
| CSc1ccc2c(c1)C(N1CCN(C)CC1)Cc1ccccc1S2 (stereo not shown) [Methiothepin, methiothepin mesylate] | Msep5-HT7S receptor (Mythimna separata, UniProt A0AAD7YHG5, DEL320-414) | IC50 | 63.1 |

Return IC50 (reported value) for this molecule: CC1CCN(CC[C@H]2CCCN2S(=O)(=O)c2cccc(O)c2)CC1 67.6
